These data points were gathered from ChEMBL document CHEMBL3994638.

- Target Under Test: NT-3 growth factor receptor (Homo sapiens, UniProt Q16288)
- Sequence (Q16288 whole entry): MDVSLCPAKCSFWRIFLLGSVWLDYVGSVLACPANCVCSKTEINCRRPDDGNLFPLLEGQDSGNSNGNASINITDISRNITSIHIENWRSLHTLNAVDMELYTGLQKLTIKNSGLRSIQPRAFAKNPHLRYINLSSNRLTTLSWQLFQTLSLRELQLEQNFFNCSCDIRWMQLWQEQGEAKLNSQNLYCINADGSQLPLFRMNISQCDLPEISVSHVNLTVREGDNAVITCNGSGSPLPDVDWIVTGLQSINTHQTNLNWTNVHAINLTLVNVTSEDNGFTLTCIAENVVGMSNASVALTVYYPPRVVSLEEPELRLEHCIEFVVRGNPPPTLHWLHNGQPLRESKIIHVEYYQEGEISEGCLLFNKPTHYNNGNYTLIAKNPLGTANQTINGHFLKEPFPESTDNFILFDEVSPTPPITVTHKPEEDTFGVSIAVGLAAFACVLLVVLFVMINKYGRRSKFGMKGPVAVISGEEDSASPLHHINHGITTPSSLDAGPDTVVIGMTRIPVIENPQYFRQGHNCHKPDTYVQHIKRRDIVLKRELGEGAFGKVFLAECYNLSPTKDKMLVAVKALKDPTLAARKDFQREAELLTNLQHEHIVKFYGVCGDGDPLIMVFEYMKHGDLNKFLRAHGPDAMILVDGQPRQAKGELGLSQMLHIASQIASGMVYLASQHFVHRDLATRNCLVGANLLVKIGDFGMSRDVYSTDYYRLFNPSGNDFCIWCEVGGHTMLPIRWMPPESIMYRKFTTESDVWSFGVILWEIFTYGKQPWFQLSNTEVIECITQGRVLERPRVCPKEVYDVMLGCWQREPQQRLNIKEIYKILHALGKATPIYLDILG
- Protocol Notes: Inhibition of recombinant human TrkC expressed in DHFR deficient CHO cells assessed as inhibition of human neurotrophin-3-induced calcium influx by Fluo-4 AM dye based assay
Metric: IC50

>>> df
                              sample_smiles                         target_under_test   result
0  CCOc1nn(-c2ccccc2)c(NC(=O)N[C@@H]2CN(CCOC)C[C@H]2c2ccc(F)c(F)c2)c1C  NT-3 growth factor receptor (Homo sapiens, UniProt Q16288)  2480 nM
1  CC(C)Oc1cc(Nc2nc(N[C@@H](C)c3ccc(F)cn3)ncc2Cl)n[nH]1  NT-3 growth factor receptor (Homo sapiens, UniProt Q16288)   7.2 nM

###

- Target Under Test: High affinity nerve growth factor receptor (Homo sapiens)
- Sequence (P04629 whole entry, the tested form may be a part): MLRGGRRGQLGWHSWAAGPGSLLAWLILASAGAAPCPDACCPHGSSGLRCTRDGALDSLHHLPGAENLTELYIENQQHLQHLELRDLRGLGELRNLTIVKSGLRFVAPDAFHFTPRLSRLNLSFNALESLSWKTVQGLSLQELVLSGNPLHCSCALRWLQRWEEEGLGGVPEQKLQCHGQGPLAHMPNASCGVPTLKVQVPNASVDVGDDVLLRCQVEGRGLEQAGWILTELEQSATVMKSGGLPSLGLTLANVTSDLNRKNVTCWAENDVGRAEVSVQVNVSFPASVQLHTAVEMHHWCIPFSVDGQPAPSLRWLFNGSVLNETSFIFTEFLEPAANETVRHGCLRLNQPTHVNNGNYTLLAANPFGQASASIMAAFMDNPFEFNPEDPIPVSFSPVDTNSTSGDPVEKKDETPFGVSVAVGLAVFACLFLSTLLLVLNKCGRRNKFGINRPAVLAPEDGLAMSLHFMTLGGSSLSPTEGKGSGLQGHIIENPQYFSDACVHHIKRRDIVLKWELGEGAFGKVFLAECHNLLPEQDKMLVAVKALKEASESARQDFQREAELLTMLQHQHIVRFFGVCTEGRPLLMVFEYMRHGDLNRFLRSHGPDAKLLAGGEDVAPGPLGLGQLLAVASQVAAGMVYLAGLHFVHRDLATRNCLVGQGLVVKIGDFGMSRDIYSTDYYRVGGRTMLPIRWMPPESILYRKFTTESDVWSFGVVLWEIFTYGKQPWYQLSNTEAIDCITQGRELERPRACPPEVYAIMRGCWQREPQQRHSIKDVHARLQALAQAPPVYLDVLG
- Protocol Notes: Inhibition of juxtamembrane region deficient recombinant human N-terminal His6-tagged/GST-tagged TrkA (498 to 796 residues) expressed in baculovirus infected Hi5 cells using TK substrate after 60 mins by HTRF assay
Metric: IC50 (µM)

>>> print(df.to_string())
                              sample_smiles  metric  numeric_value
0  CCOc1nn(-c2ccccc2)c(NC(=O)N[C@@H]2CN(CCOC)C[C@H]2c2ccc(F)c(F)c2)c1C    IC50           37.2
